Reference for the values: patent US20250034173A1

Subject Of Test: KRAS Wild Type (Homo sapiens (Human), UniProt P01116)
Sequence (P01116 other isoform, or with tags, fused parts or gaps): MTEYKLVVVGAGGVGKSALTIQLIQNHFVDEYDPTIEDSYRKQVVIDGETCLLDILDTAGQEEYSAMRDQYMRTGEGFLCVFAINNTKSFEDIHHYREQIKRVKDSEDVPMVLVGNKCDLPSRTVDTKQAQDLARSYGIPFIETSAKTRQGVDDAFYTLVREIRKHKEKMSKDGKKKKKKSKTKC
Protocol Details: SPR binding affinity and kinetics, GTPγS-loaded KRAS Wild Type
Measurement Parameters: GTPγS loaded protein, geomean
Field: label. Allowed values: 1 (Kd < 5 nM) or -1 (Kd >= 5 nM).

compound=Fc1c(-c2c(Cl)c(Cl)cc3[nH]ncc23)nc2c3c(nc(OC[C@@]45CCCN4C[C@H](F)C5)nc13)N1CCCC[C@H]1CO2 assigned_class=-1
compound=C=C1CN2CCC[C@@]2(COc2nc3c4c(nc(-c5c(C6CC6)c(Cl)cc6[nH]ncc56)c(F)c4n2)OC[C@@H]2CC[C@H](O)CN32)C1 assigned_class=1
compound="C=C1CN2CCC[C@@]2(COc2nc3c4c(nc(-c5c6c(cc7[nH]ncc57)CCC[C@H]6OC)c(F)c4n2)OC[C@@H]2COCCCN32)C1 (single isomer, unassigned) [Example 56]" assigned_class=-1
compound=C/C=C1\CN2CCC[C@@]2(COc2nc3c4c(nc(-c5c6c(cc7[nH]ncc57)CCC[C@H]6C)c(F)c4n2)OC[C@@H]2COCCCN32)C1 assigned_class=1
compound=C=C1CN2CCC[C@@]2(COc2nc3c4c(nc(-c5c(C(F)(F)F)ccc6[nH]ncc56)c(F)c4n2)OC[C@@H]2COCCCN32)C1 assigned_class=-1
compound="C=C1CN2CCC[C@@]2(COc2nc3c4c(nc(-c5c([C@@H]6C[C@H]6C)c(Cl)cc6[nH]ncc56)c(F)c4n2)OC[C@@H]2COCCCN32)C1 (single isomer, unassigned)" assigned_class=-1
compound="COC/C=C1\\CN2CCC[C@@]2(COc2nc3c4c(nc(-c5c6c(cc7[nH]ncc57)CCC[C@H]6OC)c(F)c4n2)OC[C@@H]2COCCCN32)C1 (single isomer, unassigned) [Example 58]" assigned_class=-1
compound=C=C1CN2CCC[C@@]2(COc2nc3c4c(nc(-c5c6c(cc7[nH]nc(Cl)c57)CCC[C@H]6C)c(F)c4n2)OC[C@@H]2COCCCN32)C1 assigned_class=1
compound=C=C1CN2CCC[C@@]2(COc2nc3c4c(nc(-c5c(C6CC6)c(Cl)cc6[nH]ncc56)c(F)c4n2)OC[C@@H]2CCCCN32)C1 assigned_class=-1
compound=Fc1c(-c2cccc3[nH]ncc23)nc2c3c(nc(OC[C@@]45CCCN4C[C@H](F)C5)nc13)N1CCCOC[C@H]1CO2 assigned_class=-1
compound=C=C1CN2CCC[C@@]2(COc2nc3c4c(nc(-c5c(CC)c(Cl)cc6[nH]ncc56)c(F)c4n2)OC[C@@H]2COCCCN32)C1 assigned_class=-1
compound=C[C@@H]1CCCc2cc3[nH]ncc3c(-c3nc4c5c(nc(OC[C@@]67CCCN6C/C(=C\F)C7)nc5c3F)N3CCCOC[C@H]3CO4)c21 assigned_class=1
compound=C=C1CN2CCC[C@@]2(COc2nc3c4c(nc(-c5c(Cl)c(C)cc6[nH]ncc56)c(F)c4n2)OC[C@@H]2COCCCN32)C1 assigned_class=-1

----------
System: H358 (non-small cell lung cancer cell line)
Protocol Details: KRAS Cell Titer Glo (CTG) cell proliferation assay, H358
Type: cell-based
Measurement Parameters: Homo sapiens, NCI-H358, 168 h; H358 cells, 7-day CTG, geomean IC50
Listed below: IC50 values for each entry.
Measurement Type: IC50 (nM)

compound="C=C1CN2CCC[C@@]2(COc2nc3c4c(nc(-c5c([C@@H]6C[C@@H]6C)c(Cl)cc6[nH]ncc56)c(F)c4n2)OC[C@@H]2COCCCN32)C1 (single isomer, unassigned) [Example 30]" unit_spec=nM comparative_sign== result_value=51
compound="COC/C=C1\\CN2CCC[C@@]2(COc2nc3c4c(nc(-c5c(C6CC6)c(Cl)cc6[nH]ncc56)c(F)c4n2)OC[C@@H]2COCCCN32)C1 [Example 28]" unit_spec=nM comparative_sign== result_value=19
compound="C=C1CN2CCC[C@@]2(COc2nc3c4c(nc(-c5c(C)c(Cl)cc6[nH]ncc56)c(F)c4n2)OC[C@@H]2COCCCN32)C1 [Example 7]" unit_spec=nM comparative_sign== result_value=173
compound="C=C1CN2CCC[C@@]2(COc2nc3c4c(nc(-c5c(C6CC6)c(Cl)cc6[nH]ncc56)c(F)c4n2)OC[C@@H]2CCCCN32)C1 [Example 21]" unit_spec=nM comparative_sign== result_value=381
compound="C=C1CN2CC[C@@H](O)[C@@]2(COc2nc3c4c(nc(-c5c(C6CC6)c(Cl)cc6[nH]ncc56)c(F)c4n2)OC[C@@H]2COCCCN32)C1 (relative stereo) [Example 45]" unit_spec=nM comparative_sign== result_value=19
compound="CN(C)C(=O)/C=C1\\CN2CCC[C@@]2(COc2nc3c4c(nc(-c5c(C6CC6)c(Cl)cc6[nH]ncc56)c(F)c4n2)OC[C@@H]2COCCCN32)C1 [Example 43]" unit_spec=nM comparative_sign=> result_value=9990
compound="C=C1CN2CCC[C@@]2(COc2nc3c4c(nc(-c5c(C6CC6)c(Cl)cc6[nH]nc(Cl)c56)c(F)c4n2)OC[C@@H]2COCCCN32)C1 [Example 46]" unit_spec=nM comparative_sign== result_value=15
compound="C=C1CN2CCC[C@@]2(COc2nc3c4c(nc(-c5c(C6CC6)c(Cl)cc6[nH]ncc56)c(F)c4n2)OC[C@@H]2CC[C@H](O)CN32)C1 [Example 23]" unit_spec=nM comparative_sign== result_value=102
compound="C=C1CN2CCC[C@@]2(COc2nc3c4c(nc(-c5c(C6CC6)c(Cl)cc6[nH]ncc56)c(F)c4n2)OC[C@@H]2COCCN32)C1 [Example 22]" unit_spec=nM comparative_sign== result_value=636
compound="Fc1c(-c2c(Cl)c(Cl)cc3[nH]ncc23)nc2c3c(nc(OC[C@@]45CCCN4C[C@H](F)C5)nc13)N1CCCC[C@H]1CO2 [Example 4]" unit_spec=nM comparative_sign== result_value=534
compound="C/C=C1/CN2CCC[C@@]2(COc2nc3c4c(nc(-c5c(C6CC6)c(Cl)cc6[nH]ncc56)c(F)c4n2)OC[C@@H]2COCCCN32)C1 [Example 27]" unit_spec=nM comparative_sign== result_value=72
compound="C=C1CN2CCC[C@@]2(COc2nc3c4c(nc(-c5c(C(C)C)c(Cl)cc6[nH]ncc56)c(F)c4n2)OC[C@@H]2COCCCN32)C1 [Example 24]" unit_spec=nM comparative_sign== result_value=45
compound="Fc1c(-c2c(C3CC3)c(Cl)cc3[nH]ncc23)nc2c3c(nc(OC[C@@]45CCCN4CC(=C4COC4)C5)nc13)N1CCCOC[C@H]1CO2 [Example 41]" unit_spec=nM comparative_sign== result_value=25
compound="C=C1CN2CCC[C@@]2(COc2nc3c4c(nc(-c5c6c(cc7[nH]ncc57)CCC[C@H]6C)c(F)c4n2)OC[C@@H]2COCCCN32)C1 [Example 29]" unit_spec=nM comparative_sign== result_value=4
compound="Fc1c(-c2cccc3[nH]ncc23)nc2c3c(nc(OC[C@@]45CCCN4C[C@H](F)C5)nc13)N1CCCOC[C@H]1CO2 [Example 3]" unit_spec=nM comparative_sign=> result_value=9990
